The following molecules are listed with their measured MIC values.
# Tested on: Salmonella typhimurium
# method: Antimicrobial activity against Salmonella typhimurium ATCC 13311 after 18 hrs by twofold agar dilution method
# Format: functional, Salmonella enterica subsp. enterica serovar Typhimurium
# experimental conditions: Salmonella enterica, ATCC 13311, 18 h

Here are 7 molecules together with their reported answers.
{"columns": ["mol smiles", "MIC"],
 "data": [
  ["C[C@H](CO)[C@H]1CC[C@H]2[C@@H]3[C@H](F)C[C@H]4C[C@@H](NCCCNCCCCN)CC[C@]4(C)[C@H]3CC[C@]12C.Cl.Cl.Cl", "> 32 µg/mL"],
  ["C[C@H](CO)[C@H]1CC[C@H]2[C@@H]3CC[C@H]4C[C@@H](NCCCNCCCCNCCCN)CC[C@]4(C)[C@H]3CC[C@]12C.Cl.Cl.Cl.Cl", "> 32 µg/mL"],
  ["C[C@H](CO)[C@H]1CC[C@H]2[C@@H]3CC[C@@H]4C[C@H](NCCCNCCCCNCCCN)CC[C@]4(C)[C@H]3CC[C@]12C.Cl.Cl.Cl.Cl", "> 32 µg/mL"],
  ["C[C@H](CO)[C@H]1CC[C@H]2[C@@H]3CC[C@@H]4C[C@@H](NCCCNCCCCNCCCN)CC[C@]4(C)[C@H]3CC[C@]12C.Cl.Cl.Cl.Cl", "> 32 µg/mL"],
  ["C[C@H](CO)[C@H]1CC[C@H]2[C@@H]3CC[C@@H]4C[C@@H](NCCCNCCCCN)CC[C@]4(C)[C@H]3CC[C@]12C.Cl.Cl.Cl", "> 32 µg/mL"],
  ["C[C@H](CO)[C@H]1CC[C@H]2[C@@H]3CC[C@H]4C[C@H](NCCCNCCCCNCCCN)CC[C@]4(C)[C@H]3CC[C@]12C.Cl.Cl.Cl.Cl", "> 32 µg/mL"],
  ["C[C@H](CO)[C@H]1CC[C@H]2[C@@H]3[C@H](O)C[C@H]4C[C@@H](NCCCNCCCCN)CC[C@]4(C)[C@H]3CC[C@]12C.Cl.Cl.Cl", "> 32 µg/mL"]
]}

Now for the molecule whose MIC we want.
Looking up `C[C@H](CO)[C@H]1CC[C@H]2[C@@H]3CC[C@H]4C[C@@H](NCCCNCCCCN)CC[C@]4(C)[C@H]3CC[C@]12C.Cl.Cl.Cl` , I found its MIC recorded as > 32 µg/mL

* * *

# Tested on: Enterobacter cloacae
# method: Antimicrobial activity against Enterobacter cloacae ATCC 27508 after 18 hrs by twofold agar dilution method
# Type: functional
# experimental conditions: ATCC 27508, 18 h
The following molecules are listed with their measured MIC values.

{"columns": ["mol smiles", "system", "MIC"],
 "data": [
  ["C[C@H](CO)[C@H]1CC[C@H]2[C@@H]3CC[C@H]4C[C@@H](NCCCNCCCCNCCCN)CC[C@]4(C)[C@H]3CC[C@]12C.Cl.Cl.Cl.Cl", "Enterobacter cloacae", "> 32 µg/mL"],
  ["C[C@H](CO)[C@H]1CC[C@H]2[C@@H]3CC[C@H]4C[C@H](NCCCNCCCCN)CC[C@]4(C)[C@H]3CC[C@]12C.Cl.Cl.Cl", "Enterobacter cloacae", "> 32 µg/mL"]
]}

Now for the molecule whose MIC we want.
The reported Enterobacter cloacae MIC of `C[C@H](CO)[C@H]1CC[C@H]2[C@@H]3CC[C@@H]4C[C@@H](NCCCNCCCCN)CC[C@]4(C)[C@H]3CC[C@]12C.Cl.Cl.Cl` is > 32 µg/mL
